Examples of compounds with documented IC50 follow.
- experimental.target: Full-length human MNK2 (Homo sapiens, UniProt Q9HBH9, T379D)
- Construct: GST (N); purchased Carna Biosciences 02-146; host or cells: baculovirus expression system
- Sequence (Q9HBH9 whole entry T379D): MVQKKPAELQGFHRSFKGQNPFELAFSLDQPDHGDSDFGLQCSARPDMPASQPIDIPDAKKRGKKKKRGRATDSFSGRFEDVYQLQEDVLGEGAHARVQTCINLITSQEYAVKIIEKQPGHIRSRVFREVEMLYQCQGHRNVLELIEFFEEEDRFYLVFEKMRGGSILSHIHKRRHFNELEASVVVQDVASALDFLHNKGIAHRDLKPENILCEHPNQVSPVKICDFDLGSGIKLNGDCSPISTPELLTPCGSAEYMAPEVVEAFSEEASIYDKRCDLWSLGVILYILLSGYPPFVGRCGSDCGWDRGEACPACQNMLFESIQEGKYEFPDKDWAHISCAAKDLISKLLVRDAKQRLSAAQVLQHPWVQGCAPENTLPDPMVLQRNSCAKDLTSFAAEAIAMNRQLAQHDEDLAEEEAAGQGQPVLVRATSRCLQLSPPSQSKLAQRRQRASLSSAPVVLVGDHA
- method: MNK2 biochemical IC50 assay (Caliper Mobility Shift Assay)
- condition.set: read-out: P(IC50) MNK2 (converted)

compound: CC(C)Oc1cc(F)ccc1Nc1ncnc2sc(C(=O)NCCC(=O)O)nc12
reading.unit: nM
IC50: 79.4
//
compound: CC(C)Oc1c(F)cccc1Nc1ncnc2sc(C(=O)NCCCN(C)C)nc12
reading.unit: nM
IC50: 50.1
//
compound: CO[C@H]1CCC[C@@H](Oc2cc(F)ccc2Nc2ncnc3sc(C(=O)NCC4CCNCC4)nc23)C1
reading.unit: nM
IC50: 1000
//
compound: CC(C)Oc1cc(F)ccc1Nc1ncnc2sc(C(=O)NCC3CCOCC3)nc12
reading.unit: nM
IC50: 63.1
//
compound: O=C(NC1CCOCC1)c1nc2c(N3CCc4ncccc43)ncnc2s1
reading.unit: nM
IC50: 100
//
compound: O=C(NC1CCOCC1)c1nc2c(N3CC(CCN4CCCC4)c4cc(F)ccc43)ncnc2s1 (stereo not drawn)
reading.unit: nM
IC50: 50.1
//
compound: CC(C)[C@@H](CO)NC(=O)c1nc2c(N3CCc4ccccc43)ncnc2s1
reading.unit: nM
IC50: 12.6
//
compound: N#Cc1ccc2c(c1)CCN2c1ncnc2sc(C(=O)NC3CCOCC3)nc12
reading.unit: nM
IC50: 20
//
compound: O=C(NCC1CCNCC1)c1nc2c(N3CCc4ccccc43)ncnc2s1
reading.unit: nM
IC50: 3.98

----------
- experimental.target: Full-length human MNK2 (Homo sapiens, UniProt Q9HBH9, T379D)
- Construct: GST (N); purchased Carna Biosciences 02-146; host or cells: baculovirus expression system
- method: MNK2 biochemical IC50 assay (Caliper Mobility Shift Assay)
- condition.set: read-out: P(IC50) MNK2 (converted)
Each item that follows carries a reported log10 of IC50.
measure: log10 of IC50 (log10 of the value in µM)

molecule: CC1(CO)CN(c2ncnc3sc(C(=O)NCC4CCNCC4)nc23)c2ccccc21 (stereo not drawn)
log10 of IC50: -2.20

molecule: CN1CCN(c2nc3c(N4CCc5cc(F)ccc54)ncnc3s2)CC1
log10 of IC50: -1.30

molecule: COCCCNC(=O)c1nc2c(N3CC(CCN)c4ccccc43)ncnc2s1 (stereo not drawn)
log10 of IC50: -2.30

molecule: CC(C)Oc1cc(F)ccc1Nc1ncnc2sc(C(=O)NCC3CNCCO3)nc12 (stereo not drawn)
log10 of IC50: -1.40

molecule: CC(=O)Nc1ccc2c(c1)CCN2c1ncnc2sc(C(=O)NC3CCN(C)CC3)nc12
log10 of IC50: -0.70

molecule: CC(C)CCNC(=O)c1nc2c(N3CC(CCN)c4ccccc43)ncnc2s1 (stereo not drawn)
log10 of IC50: -2.00

molecule: O=C(NC1CCOCC1)c1nc2c(N3CCc4cc(C(F)(F)F)ccc43)ncnc2s1
log10 of IC50: -0.90

molecule: CC1Cc2ccccc2N1c1ncnc2sc(C(=O)NC3CCN(C)CC3)nc12 (stereo not drawn)
log10 of IC50: -1.80

molecule: CC(C)Oc1cc(F)ccc1Nc1ncnc2sc(CO)nc12
log10 of IC50: -1.40

molecule: O=C(NCC1CCNCC1)c1nc2c(N3CCc4cc(Cl)ccc43)ncnc2s1
log10 of IC50: -2.50

molecule: CN(C)CCC1CN(c2ncnc3sc(C(=O)NC4CCOCC4)nc23)c2ccc(F)cc21 (stereo not drawn)
log10 of IC50: -1.20

molecule: CC(C)Oc1cc(F)ccc1Nc1ncnc2sc(C(=O)NC3CC4CCC(C3)N4)nc12 (stereo not drawn)
log10 of IC50: -1.10

molecule: CC1(CO)CN(c2ncnc3sc(C(=O)NCC4CCNCC4)nc23)c2ccc(F)cc21 (stereo not drawn)
log10 of IC50: -2.30

molecule: CNCCC1(C)CN(c2ncnc3sc(C(=O)NC4CCOCC4)nc23)c2ccccc21 (stereo not drawn)
log10 of IC50: -0.80

molecule: CNCCCNC(=O)c1nc2c(N3c4ccccc4C[C@H]3C)ncnc2s1
log10 of IC50: -1.90

molecule: CC1CN(c2ncnc3sc(C(=O)NCC4CCNCC4)nc23)c2ccccc21 (stereo not drawn)
log10 of IC50: -2.10

molecule: CC(C)Oc1cc(F)ccc1Nc1ncnc2sc(C(=O)N3CCC(CCO)CC3)nc12
log10 of IC50: -0.50

molecule: O=C(NCC1CCNCC1)c1nc2c(N3CCc4cc(C(F)(F)F)ccc43)ncnc2s1
log10 of IC50: -1.00
